Recorded self-cleavage values for a group of variants are listed next.
B1: OR4K15 (parent)
chain: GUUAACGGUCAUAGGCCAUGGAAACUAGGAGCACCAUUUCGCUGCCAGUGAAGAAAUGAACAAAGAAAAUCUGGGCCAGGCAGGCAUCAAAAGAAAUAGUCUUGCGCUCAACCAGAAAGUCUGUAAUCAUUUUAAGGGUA

Variants of: B1
protocol.notes: self-cleavage, relative activity (ratio to wild type); higher = more cleavage; in vitro, sequencing; the parent is a self-cleaving ribozyme
metric: self-cleavage

A30U U127C = 0.71
G14C A82G = 0.32
A89U A91G = 1.78
A94U A135U = 1.75
C17U C109A = 0.2
U122C U132C = 0.49
A86G A114C = 0.06
A51G U72C = 0.38
U9C A111U = 0.09
U108G A116G = 0
A11U A116C = 0.23
A54G A91G = 1.18
U9A A92G = 1.08
G73A A117G = 0.15
U9C A129G = 1.37
G7U U39C = 0.54
A63G G79A = 0.11
U102A U122C = 0.55
